Biological target: MMP-13CD (catalytic domain of collagenase-3) (Homo sapiens)
Experiment: Thiopeptolide substrate hydrolysis inhibition assay, MMP-13CD
Assay type: biochemical
Settings: Table I; thiopeptolide substrate, HEPES pH 7.0, 22° C.; read-out: MMP-13CD IC50
Listed here are compounds together with their documented pIC50.
A value of pIC50 is the negative decimal logarithm of a concentration given in moles per litre.

COC(=O)C1CCC(Cn2c(=O)c3cc(C(=O)NCc4cccc(OC)c4)sc3n(C)c2=O)CC1 (stereo not shown) [Example 91]; 7.30
Cn1c(=O)n(Cc2ccccc2)c(=O)c2cc(C(=O)OC3CCOCC3)sc21 [Example 167]; 4.59
COC(=O)c1ccc(Cn2c(=O)c3cc(C(=O)NCc4ccc(OC)cc4)sc3n(C)c2=O)cc1C [Example 238]; 7.26
COc1ccc(CNC(=O)c2cc3c(=O)n(CCOc4ccccc4)c(=O)n(C)c3s2)cc1 [Example 275]; 7.44
O=C(OCc1ccncc1)c1cc2c(=O)n(Cc3ccccc3)c(=O)[nH]c2s1 [Example 2]; 6.51
COc1ccc(CNC(=O)c2cc3c(=O)n(CC(=O)C(CC(=O)OC(C)(C)C)NC(=O)OCc4ccccc4)c(=O)n(C)c3s2)cc1 (stereo not shown) [Example 277]; 4.70

Alright, here's another compound for you.
# pIC50 lookup, item CCCCNC(=O)NS(=O)(=O)c1ccc(Cn2c(=O)c3cc(C(=O)NCc4cccc(OC)c4)sc3n(C)c2=O)cc1 [Example 231a]
8.05

###

Biological target: MMP-13CD (catalytic domain of collagenase-3) (Homo sapiens)
Experiment: Thiopeptolide substrate hydrolysis inhibition assay, MMP-13CD
Type: biochemical
Conditions: Table I; thiopeptolide substrate, HEPES pH 7.0, 22° C.; read-out: MMP-13CD IC50
observed property: IC50 (nM)
Give just the numeric value; nM need not be written.

Reference set, count: 2
CCC(C)n1c(=O)c2cc(C(=O)NCc3ccc(OC)cc3)sc2n(C)c1=O (stereo not shown); 3400
CCOC(=O)c1ccc(Cn2c(=O)c3cc(C(=O)NCc4cccc(OC)c4)sc3n(C)c2=O)o1 [Example 65a]; 1050

Alright, here's another compound for you.
# IC50 lookup, item COc1cccc(CNC(=O)c2cc3c(=O)n(CC4CCC(C(=O)O)CC4)c(=O)n(C)c3s2)c1 (stereo not shown)
5.43

###

Target: MMP-13CD (catalytic domain of collagenase-3) (Homo sapiens, UniProt P45452)
Assay: Thiopeptolide substrate hydrolysis inhibition assay, MMP-13CD
Type: biochemical
Conditions: Table I; thiopeptolide substrate, HEPES pH 7.0, 22° C.; read-out: MMP-13CD IC50
observed property: pIC50
A value of pIC50 is the negative decimal logarithm of a concentration given in moles per litre.

Reference set, count: 6
Cn1c(=O)n(CCCCCCC#N)c(=O)c2cc(C(=O)OCc3ccccc3)sc21; 5.62
COc1cccc(CNC(=O)c2cc3c(=O)n(CC#N)c(=O)n(C)c3s2)c1; 6.11
Cn1c(=O)n(Cc2ccccc2)c(=O)c2cc(C(=O)NCc3cccs3)sc21; 5.44
COc1ccc(CNC(=O)c2cc3c(=O)n(Cc4ccc5nonc5c4)c(=O)n(C)c3s2)cc1; 7.74
Cn1c(=O)n(Cc2ccccc2)c(=O)c2cc(C(=O)OCC(Cl)(Cl)Cl)sc21; 4.85
CCC(C)n1c(=O)c2cc(C(=O)NCc3cccc(OC)c3)sc2n(C)c1=O (centres unmarked); 5.38

Short answer please: pIC50, MMP-13CD (catalytic domain of collagenase-3) (Homo sapiens, UniProt P45452), entry Cn1c(=O)n(Cc2ccccc2)c(=O)c2cc(C(=O)NCc3ccco3)sc21
4.52

Short answer please: pIC50, MMP-13CD (catalytic domain of collagenase-3) (Homo sapiens, UniProt P45452), entry Cc1ccc(CNC(=O)c2cc3c(=O)n(Cc4ccccc4)c(=O)n(C)c3s2)o1
5.00

###

Molecular target: MMP-13CD (catalytic domain of collagenase-3) (Homo sapiens, UniProt P45452)
Test: Thiopeptolide substrate hydrolysis inhibition assay, MMP-13CD
Format: biochemical
Details: Table I; thiopeptolide substrate, HEPES pH 7.0, 22° C.; read-out: MMP-13CD IC50
Text: Thiopeptolide substrates show virtually no decomposition or hydrolysis at or below neutral pH in the absence of a matrix metalloproteinase enzyme.
Listed here are compounds together with their documented log10(IC50).
In our notation, the value equals log10 of IC50 in µM.

Reference set, count: 6
COc1ccc(COC(=O)c2cc3c(=O)n(Cc4ccccc4)c(=O)[nH]c3s2)cc1; -1.06
C/C=C/Cn1c(=O)c2cc(C(=O)NCc3cccc(OC)c3)sc2n(C)c1=O; 0.18
COc1ccc(CNC(=O)c2cc3c(=O)n(Cc4ccc(-c5noc(=S)[nH]5)cc4)c(=O)n(C)c3s2)cc1; -2.38
Cn1c(=O)n(Cc2ccc3ccccc3c2)c(=O)c2cc(C(=O)OCc3ccccc3)sc21; -1.56
Cn1c(=O)n(Cc2ccccc2)c(=O)c2cc(C(=O)NCC(c3ccccc3)c3ccccc3)sc21; 1.20
Cn1c(=O)n(Cc2ccc(C(=O)OC(C)(C)C)cc2)c(=O)c2cc(C(=O)NCc3ccc(S(C)(=O)=O)cc3)sc21; 1.40

Alright, here's another compound for you.
# log10(IC50) lookup, item COc1ccc(CNC(=O)c2cc3c(=O)n(CCS(=O)(=O)c4ccccc4)c(=O)n(C)c3s2)cc1 [Example 266]
0.60

###

Molecular target: MMP-13CD (catalytic domain of collagenase-3) (Homo sapiens)
Assay: Thiopeptolide substrate hydrolysis inhibition assay, MMP-13CD
Type: biochemical
Conditions: Table I; thiopeptolide substrate, HEPES pH 7.0, 22° C.; read-out: MMP-13CD IC50
Listed here are compounds together with their documented IC50.
Give just the numeric value; nM need not be written.

Reference set, count: 5
Cn1c(=O)n(Cc2ccccc2)c(=O)c2cc(C(=O)NCc3ccccc3Cl)sc21; 30000
Cn1c(=O)n(Cc2ccc(C(=O)O)cc2)c(=O)c2cc(C(=O)NCc3ccc(Br)cc3)sc21; 11
Cn1c(=O)n(Cc2ccccc2)c(=O)c2cc(C(=O)OC(C#N)c3ccccc3)sc21 (centres unmarked); 2100
Cn1c(=O)n(Cc2ccccc2)c(=O)c2cc(C(=O)OCCC(c3ccccc3)c3ccccc3)sc21; 19000
Cn1c(=O)n(Cc2cccc3ccccc23)c(=O)c2cc(C(=O)OCc3ccccc3)sc21; 660

# IC50 lookup, item COc1ccc(CNC(=O)c2cc3c(=O)n(Cc4ccc(C(=O)O)cc4)c(=O)n(C)c3s2)cc1
3.95

# IC50 lookup, item COc1ccc(CNC(=O)c2cc3c(=O)n(C(C)c4ccccc4)c(=O)n(C)c3s2)cc1 (centres unmarked)
810

###

Biological target: MMP-13CD (catalytic domain of collagenase-3) (Homo sapiens)
Test: Thiopeptolide substrate hydrolysis inhibition assay, MMP-13CD
Type: biochemical
Settings: Table I; thiopeptolide substrate, HEPES pH 7.0, 22° C.; read-out: MMP-13CD IC50
observed property: pIC50
A value of pIC50 is the negative decimal logarithm of a concentration given in moles per litre.

# pIC50 lookup, item Cn1c(=O)n(Cc2ccc(C(=O)O)cc2)c(=O)c2cc(C(=O)NCc3ccc(Cl)cc3)sc21
7.94

# pIC50 lookup, item COc1cccc(CNC(=O)c2cc3c(=O)n(CCOc4ccc(Br)cc4)c(=O)n(C)c3s2)c1 [Example 233]
7.16

###

Target: MMP-13CD (catalytic domain of collagenase-3) (Homo sapiens)
Experiment: Thiopeptolide substrate hydrolysis inhibition assay, MMP-13CD
Format: biochemical
Details: Table I; thiopeptolide substrate, HEPES pH 7.0, 22° C.; read-out: MMP-13CD IC50
Excerpt: Thiopeptolide substrates show virtually no decomposition or hydrolysis at or below neutral pH in the absence of a matrix metalloproteinase enzyme.
Listed here are molecules together with their documented pIC50.
A value of pIC50 is the negative decimal logarithm of a concentration given in moles per litre.

Reference set, count: 5
COc1nc2sc(C(=O)OCc3ccccc3)cc2c(=O)n1Cc1ccccc1 [Example 88]; 5.50
CCOCCOC(=O)c1cc2c(=O)n(Cc3ccccc3)c(=O)n(C)c2s1 [Example 210]; 5.92
O=C(OCc1ccc(/C=C/c2ccccc2)cc1)c1cc2c(=O)n(Cc3ccccc3)c(=O)[nH]c2s1 [Example 4]; 4.80
COc1ccccc1CCNC(=O)c1cc2c(=O)n(Cc3ccccc3)c(=O)n(C)c2s1 [Example 348]; 4.52
Cc1ccc(-n2c(=O)[nH]c3sc(C(=O)OCc4ccccc4)c(C)c3c2=O)cc1 [Example 7]; 5.00

# pIC50 lookup, item Cn1c(=O)n(Cc2ccccc2)c(=O)c2cc(C(=O)OCc3ccncc3)sc21 [Example 303]
8.44

# pIC50 lookup, item Cn1c(=O)n(Cc2ccccc2)c(=O)c2cc(C(=O)NCc3ccc(C(F)(F)F)cc3)sc21 [Example 212]
6.17

# pIC50 lookup, item Cn1c(=O)n(Cc2ccccc2)c(=O)c2cc(C(=O)OCCc3ccccc3)sc21 [Example 172]
4.49

# pIC50 lookup, item COC(=O)/C=C/Cn1c(=O)c2cc(C(=O)NCc3ccc(OC)cc3)sc2n(C)c1=O [Example 225]
6.65
